Biacore human ROR1-Fz kd listing for selected molecules.
molecular target: T1, human ROR1-Fz (Homo sapiens, UniProt Q01973); assay: Biacore off-rate and kinetic analysis, ROR1 frizzled domain; assay type: binding; details: Table 11 (SP34 light chain)
T1 construct: Frizzled (Fz, residues 165-305); HIS6 (C); purchased Acro Biosystems; host or cells: HEK293
T1 sequence (Q01973 165-305): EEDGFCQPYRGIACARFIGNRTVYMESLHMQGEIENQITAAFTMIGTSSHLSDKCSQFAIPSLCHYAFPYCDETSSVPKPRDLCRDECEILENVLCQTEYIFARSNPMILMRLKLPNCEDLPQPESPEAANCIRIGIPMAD
Record the value in s⁻¹, omitting the unit from your answer.

Below, each entry is followed by its recorded Biacore human ROR1-Fz kd result.
Molecule	Assay Readout	Endpoint Result
SRP2196-B07 (antibody, V domains shown) VH: EVQLVESGGGLVQPGGSLRLSCAASGFNITGYHIHWVRQAPGEGLEWVGYISPNSGATYYADSVEGRFTISADTSKNTAYLQMHSLRAEDTAVYYCTRDSRRYVRGWDYWGQGTLVTVSS VL: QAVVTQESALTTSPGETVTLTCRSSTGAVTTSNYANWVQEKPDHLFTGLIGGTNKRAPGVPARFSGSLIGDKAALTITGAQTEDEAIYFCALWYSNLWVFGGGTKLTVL	Biacore human ROR1-Fz kd	0.000269
SRP2196-B01 (antibody, V domains shown) VH: EVQLVESGGGLVQPGGSLRLSCAASGFNITGYYIHWVRQAPGKGLEWVGQISPNSGYTYYADSVKGRFTISADTSKNTTYLQMNSLRAEDTAVYYCARDSRRYVRSWDYWGQGTLVTVSS VL: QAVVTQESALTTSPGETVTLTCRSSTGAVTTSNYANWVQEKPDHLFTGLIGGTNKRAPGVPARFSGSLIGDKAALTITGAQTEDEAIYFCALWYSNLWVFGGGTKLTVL	Biacore human ROR1-Fz kd	0.000401
SRP2196-C03 (antibody, V domains shown) VH: EVQLVESGGGLVQPGGSLRLSCAASGFNITGYYIHWVRQAPGKGLEWVGQISPNSGSTYSADSVKGRFTISADTSKNTAYLQMSSLRAEDTAVYYCARDSRRYVLSWDYWGQGTLVTVSS VL: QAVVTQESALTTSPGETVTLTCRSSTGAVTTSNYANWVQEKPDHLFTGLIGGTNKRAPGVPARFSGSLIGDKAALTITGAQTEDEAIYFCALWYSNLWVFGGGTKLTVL	Biacore human ROR1-Fz kd	0.000461
SRP2196-B02 (antibody, V domains shown) VH: EVQLVESGGGLVQPGGSLRLSCAASGFNITQYYIHWVRQAPGKGLEWVGYISPNSGQTYDADSVKGRFTISADTSKNTAYLQMNSLRAEDTAVYYCARDSRRYVRSWDYWGQGTLVTVSS VL: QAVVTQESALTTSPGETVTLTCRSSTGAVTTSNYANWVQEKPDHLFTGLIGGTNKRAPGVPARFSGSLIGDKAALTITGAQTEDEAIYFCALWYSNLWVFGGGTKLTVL	Biacore human ROR1-Fz kd	0.000227

# evaluate next
Asked: Look up Biacore human ROR1-Fz kd for this molecule: SRP1944-A07 w SP34 LC3 (antibody, V domains shown) VH: EVQLVESGGGLVQPGGSLRLSCAASGFNITGYYIHWVRQAPGKGLEWVGYISPNSGSTYYADSVKGRFTISADTSKNTAYLQMNSLRAEDTAVYYCARDSRRYVRPFDYWGQGTLVTVSS VL: QTVVTQEPSLTVSPGGTVTLTCGSSTGAVTSGYYPNWFQQKPGQAPRGLIGGTKFLAPGTPARFSGSLLGGKAALTLSGVQPEDEAEYYCALWYSNRWVFGGGTQLTVTG
Given back: 0.0085
